Entry source: patent US20200024330A1

Would you mind telling me the reported IC50 (µg/mL), pseudovirus neutralization of each entry?
- system: HIV-1 92BR020 envelope protein (Env) on pseudovirus (HIV-1 isolate 92BR020)
- test protocol: cell-based or functional assay

Use these answered entries as a reference point.
| binder | result |
| --- | --- |
| 1495_C14 (PGC14) (antibody, human IgG1, lambda, V domains shown) VH: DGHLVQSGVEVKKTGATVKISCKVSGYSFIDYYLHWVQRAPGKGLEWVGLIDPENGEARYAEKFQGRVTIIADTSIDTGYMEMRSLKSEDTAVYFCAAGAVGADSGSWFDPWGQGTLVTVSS VL: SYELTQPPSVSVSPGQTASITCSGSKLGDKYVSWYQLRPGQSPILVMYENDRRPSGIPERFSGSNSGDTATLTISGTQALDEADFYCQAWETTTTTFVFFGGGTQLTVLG | 0.64 µg/mL |
| 1460_G14 (PGG14) (antibody, human IgG1, kappa, V domains shown) VH: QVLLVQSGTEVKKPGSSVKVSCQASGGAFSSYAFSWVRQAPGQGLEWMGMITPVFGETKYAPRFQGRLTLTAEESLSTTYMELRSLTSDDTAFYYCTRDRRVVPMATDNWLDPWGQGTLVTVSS VL: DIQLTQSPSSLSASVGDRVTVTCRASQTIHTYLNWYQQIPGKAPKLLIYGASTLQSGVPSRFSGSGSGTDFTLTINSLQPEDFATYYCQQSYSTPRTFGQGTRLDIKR | > 50 µg/mL |
| 1496_C09 (PG9) (TCN-109) (antibody, V domains shown) VH: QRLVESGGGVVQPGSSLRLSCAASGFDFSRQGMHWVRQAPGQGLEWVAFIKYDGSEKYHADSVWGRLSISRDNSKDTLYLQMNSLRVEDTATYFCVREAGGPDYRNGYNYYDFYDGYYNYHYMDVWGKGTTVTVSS VL: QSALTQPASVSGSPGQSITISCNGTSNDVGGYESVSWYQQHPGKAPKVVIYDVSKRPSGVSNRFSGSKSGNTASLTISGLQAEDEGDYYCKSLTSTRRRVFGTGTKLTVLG | > 50 µg/mL |

Kindly consider the entry below.
Name the recorded IC50 (µg/mL), pseudovirus neutralization for 1443_C16 (PG16) (TCN-116) (antibody, V domains shown) VH: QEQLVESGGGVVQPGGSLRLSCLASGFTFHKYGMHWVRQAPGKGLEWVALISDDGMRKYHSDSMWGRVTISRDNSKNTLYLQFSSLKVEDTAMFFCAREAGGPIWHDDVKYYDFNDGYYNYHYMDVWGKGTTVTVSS VL: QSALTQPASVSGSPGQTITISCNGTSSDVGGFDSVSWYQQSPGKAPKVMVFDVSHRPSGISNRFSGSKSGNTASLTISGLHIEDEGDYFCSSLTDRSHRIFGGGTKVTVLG .
> 50 µg/mL
